Value source: patent US20240391954A1

target: human MC3R (human, UniProt P41968 1-323); test: cell-based or functional assay
Sequence (P41968 whole entry): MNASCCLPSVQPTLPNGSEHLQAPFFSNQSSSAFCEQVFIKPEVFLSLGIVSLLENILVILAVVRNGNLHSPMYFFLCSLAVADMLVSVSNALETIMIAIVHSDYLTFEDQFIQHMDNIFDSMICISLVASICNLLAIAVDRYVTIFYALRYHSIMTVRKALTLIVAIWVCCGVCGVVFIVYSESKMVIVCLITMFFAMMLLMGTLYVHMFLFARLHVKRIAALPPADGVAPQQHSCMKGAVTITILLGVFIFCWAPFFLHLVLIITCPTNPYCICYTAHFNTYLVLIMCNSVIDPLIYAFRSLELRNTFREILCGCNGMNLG
Positions of bridges follow the written chain, without caps; N, C: chain ends. Non-standard residues stand in square brackets, D forms with d. 2Pal = N[C@@H](Cc1ccccn1)C(=O)O; Cit = NC(=O)NCCC[C@H](N)C(=O)O; Nle = CCCC[C@H](N)C(=O)O; Aib = CC(C)(N)C(=O)O
// % max activation lookup, one value per entry
I only need the number, in %, no unit after it.

Ac-R[Nle]C[2Pal][dF]RWC-NH2 (disulfide 3-8; SMILES CCCC[C@H](NC(=O)[C@H](CCCNC(=N)N)NC(C)=O)C(=O)N[C@H]1CSSC[C@@H](C(N)=O)NC(=O)[C@H](Cc2c[nH]c3ccccc23)NC(=O)[C@H](CCCNC(=N)N)NC(=O)[C@@H](Cc2ccccc2)NC(=O)[C@H](Cc2ccccn2)NC1=O) [CTX-1619] :: 84

I have this binder here, Ac-R[Nle]C[Cit]FRWC-NH2 (disulfide 3-8; SMILES CCCC[C@H](NC(=O)[C@H](CCCNC(=N)N)NC(C)=O)C(=O)N[C@H]1CSSC[C@@H](C(N)=O)NC(=O)[C@H](Cc2c[nH]c3ccccc23)NC(=O)[C@H](CCCNC(=N)N)NC(=O)[C@H](Cc2ccccc2)NC(=O)[C@H](CCCNC(N)=O)NC1=O) [CTX-1609] , and I need its recorded % max activation.
65

Next: Ac-CGR[dF]RWC-NH2 (disulfide 1-7; SMILES CC(=O)N[C@H]1CSSC[C@@H](C(N)=O)NC(=O)[C@H](Cc2c[nH]c3ccccc23)NC(=O)[C@H](CCCNC(=N)N)NC(=O)[C@@H](Cc2ccccc2)NC(=O)[C@H](CCCNC(=N)N)NC(=O)CNC1=O) [CTX-1629]
83

Next: Ac-RC[Aib]R[dF]RFC-NH2 (disulfide 2-8) [CTX-1601]
73
